System: C. albicans R303
Experiment: mouse candidiasis infection model, IP administration, kidney fungal burden
Type: in vivo
Settings: Third run; IP 4.5 mg/kg; kidneys 24 h after infection
# Mean log10 CFU/kidneys (±SEM) per entry
Write the number in log10 CFU/kidneys without appending the unit.

Reference set, count: 3
Compound	Mean log10 CFU/kidneys (±SEM), log10 CFU/kidneys
CCC(C)CC(C)CCCCCCCCC(=O)N[C@H]1C[C@@H](O)C(NCCNCCO)NC(=O)C2[C@@H](O)CCN2C(=O)C([C@H](O)CCN)NC(=O)C([C@H](O)[C@@H](O)c2ccc(O)cc2)NC(=O)C2C[C@@H](O)CC2C(=O)C([C@@H](C)O)NC1=O (some centres unmarked) [compound 21]	1.17
CCC(C)CC(C)CCCCCCCCC(=O)N[C@H]1C[C@@H](O)C(NCCNCCN)NC(=O)C2[C@@H](O)CCN2C(=O)C([C@H](O)CCN)NC(=O)C([C@H](O)[C@@H](O)c2ccc(O)cc2)NC(=O)C2C[C@@H](O)CC2C(=O)C([C@@H](C)O)NC1=O (some centres unmarked) [compound 22]	0.65
CCC(C)CC(C)CCCCCCCCC(=O)N[C@H]1C[C@@H](O)C(NCCOCCOCCN)NC(=O)C2[C@@H](O)CCN2C(=O)C([C@H](O)CCN)NC(=O)C([C@H](O)[C@@H](O)c2ccc(O)cc2)NC(=O)C2C[C@@H](O)CC2C(=O)C([C@@H](C)O)NC1=O (some centres unmarked) [compound 19]	1.17

Sample CCC(C)CC(C)CCCCCCCCC(=O)N[C@H]1C[C@@H](O)C(NCCOCCN)NC(=O)C2[C@@H](O)CCN2C(=O)C([C@H](O)CCN)NC(=O)C([C@H](O)[C@@H](O)c2ccc(O)cc2)NC(=O)C2C[C@@H](O)CC2C(=O)C([C@@H](C)O)NC1=O (some centres unmarked) [compound 20] ; Mean log10 CFU/kidneys (±SEM) observed: 1.45

Sample CC[C@H](C)C[C@H](C)CCCCCCCCC(=O)N[C@H]1C[C@@H](O)[C@@H](NCCN)NC(=O)[C@@H]2[C@@H](O)CCN2C(=O)[C@H]([C@H](O)CCN)NC(=O)[C@H]([C@H](O)[C@@H](O)c2ccc(O)cc2)NC(=O)[C@@H]2C[C@@H](O)CN2C(=O)[C@H]([C@@H](C)O)NC1=O [caspofungin, reference compound] ; Mean log10 CFU/kidneys (±SEM) observed: 0.00

* * *

Experiment: Pharmacokinetics in beagle dogs, intravenous
Type: in vivo
Conditions: dog, in vivo; 1.4 mg/kg intravenous slow bolus; mean ± SEM; n = 4 beagle dogs; read-out: Vz
Parameter measured: Vd (L/kg)
Write the number in L/kg without appending the unit.

// Vd value for CCCCCOc1ccc(-c2ccc(-c3ccc(C(=O)N[C@H]4C[C@@H](O)C(OCC[N+](C)(C)C)NC(=O)C5[C@@H](O)[C@@H](C)CN5C(=O)C([C@@H](C)O)NC(=O)C([C@H](O)[C@@H](O)c5ccc(O)cc5)NC(=O)C5C[C@@H](O)CN5C(=O)C([C@@H](C)O)NC4=O)cc3)cc2)cc1 (stereo partly shown) : 1.36

* * *

Tested on: C. albicans R303
Assay: mouse candidiasis infection model, IP administration, kidney fungal burden
Assay type: in vivo
Conditions: Second run; IP 0.5 mg/kg; kidneys 24 h after infection
*1 amine or outer side, *2 acyl side, *3 side chain or, on linkers, in order; H or OH if unused. Where a SMILES comes first, the peptide text is derived from it. Bridges are numbered along the chain shown (N, C = ends). [ ]: non-standard residue; d: D form. The star is where a group is joined. pTerphenylCO(4''-OnC5H11) = CCCCCOc1ccc(-c2ccc(-c3ccc(C(=O)*)cc3)cc2)cc1; Orn(4R-OH,5R-OH) = O=C([C@H](C[C@@H](O)[C@@H](O)N[*:3])N[*:1])[*:2]; hTyr(3S-OH,4S-OH) = N[C@H](C(=O)O)[C@H](O)[C@@H](O)c1ccc(O)cc1; Pro(3S-OH,4S-Me) = C[C@H]1CN[C@H](C(=O)O)[C@H]1O; Hyp = O=C(O)[C@@H]1C[C@@H](O)CN1
Parameter measured: Mean log10 CFU/kidneys (±SEM) (log10 CFU/kidneys)
# number only, unit log10 CFU/kidneys dropped from output

Lab note: compound CCCCCOc1ccc(-c2ccc(-c3ccc(C(=O)N[C@H]4C[C@@H](O)[C@@H](O)NC(=O)[C@@H]5[C@@H](O)[C@@H](C)CN5C(=O)[C@H]([C@@H](C)O)NC(=O)[C@H]([C@H](O)[C@@H](O)c5ccc(O)cc5)NC(=O)[C@@H]5C[C@@H](O)CN5C(=O)[C@H]([C@@H](C)O)NC4=O)cc3)cc2)cc1 [anidulafungin, reference compound] ({pTerphenylCO(4''-OnC5H11)}-[Orn(4R-OH,5R-OH)]T[Hyp][hTyr(3S-OH,4S-OH)]T[Pro(3S-OH,4S-Me)]; lactam 1-C) tested on C. albicans R303; recorded Mean log10 CFU/kidneys (±SEM) was 4.41
